Target: M2 protein of influenza A/Hong Kong/483/97 (H5N1) (influenza A virus A/Hong Kong/483/97 (H5N1))
For each of the binders below, state its FACS M2-HK MFI.
Give the number; MFI is assumed, so skip it.

Measured FACS M2-HK MFI, 3243_J07 (antibody, V domains shown) VH: QVQLQESGPGLLKPSDTLALTCTVSGGSITSDYWSWIRQPPGRGLDWIGFFYNGGSTKYNPSLKSRVTISADTSKNQLSLKLTSVTAADTGVYYCARHDVKFSGSYYVASWGQGTRVTVSS VL: DIQMTQSPSSLSASVGDRVTISCRASQSISTYLNWYQQQPGKAPKVLISGATNLQSGVPSRFSGSGSGTDFTLTISSLQPEDFATYYCQQSYNTPLIFGQGTKLEIK : 131

Measured FACS M2-HK MFI, 3136_G05 (antibody, V domains shown) VH: QVQLQESGPGLVKPSETLSLTCSVSGGSISSDFWSWIRQPPGKGLEWIGYVYNRGSTKYSPSLKSRVTISADMSKNQFSLNMSSVTAADTAVYYCAKNGRSSTSWGIDVWGKGTTVTVSS VL: DIQMTQSPSSLSASVGDRLTITCRASQSISTYLHWYQQKPGKAPKLLIYAASSLQSGVPSRFSGSRSGTDFTLTISSLQPDDFATYYCQQSYSPPLTFGPGTKVDMK : 109

Measured FACS M2-HK MFI, 3242_P05 (antibody, V domains shown) VH: DMQLVESGGGLVPPGGSLRLSCAASGFSVSDNYINWVRQAPGKGLDWVSVFYSADRTSYADSVKGRFTVSSHDSKNTVYLQMNSLRAEDTAVYYCARVQKSYYGMDVWGQGTTVTVSS VL: GIQMTQSPSSLSASVGDRVTITCRASQSISRYLNWYLQKPGKAPKLLISGASSLQSGVPSRFSGTGSGTEFTLTISSLQPEDFATYYCQQTFSIPLFGQGTKVEIK : 596
